System: KLN
assay info: Cell growth assay (sulforhodamine B), KLN cells
Type: cell-based, mouse
run conditions: 5 days, SRB
Procedure: […] Plates were then incubated with 0.4% SRB in 1% acetic acid for 1 h, washed with 1% acetic acid to remove the unbound dye, and air-dried. The bound dye was solubilized by addition of 10 mM Tris (pH 10), and the absorbance was determined in a Titertek Multiscan plate reader at 490 nm. […] If T is less than T0, cell killing has occurred and can be calculated from 100×[(T−T0)/T0]. Thus, for each drug-cell line combination, a dose-response curve is generated and three levels of effect are calculated.
property measured: IC50 (µM)
Record the value in µM, omitting the unit from your answer.

Lookup result for CCN(CCO)CCOc1ccc(C(C)(C)C)cc1C1(c2cc(C(C)(C)C)ccc2OCCN2CCOCC2)C(=O)N(CCN(C)C)c2ccccc21 (stereo not drawn) [HY306] ; measured IC50: 2.3

Lookup result for CN(C)CCN1C(=O)C(c2cc(C(C)(C)C)ccc2CCCN2CCCC2)(c2cc(C(C)(C)C)ccc2OCCN2CCCC2)c2ccccc21 (stereo not drawn) [HY198] ; measured IC50: 0.3

Lookup result for CCOC(=O)COc1ccccc1C1(c2cc(C(C)(C)C)ccc2OCC(=O)OCC)C(=O)Nc2ccccc21 (stereo not drawn) [HY067] ; measured IC50: 19.8

Every entry's value here was drawn from patent US20160106711A1.
